# Measurement Notes: Half-life in male CD-1 mouse at 50 mg/kg, IM measured by LC-MS/MS analysis
# Format: ADME, organism-based
# Settings: in vivo
Quantity Name: half-life (h)
One number for each entry, in h.

Bench note: what half-life did CNC(=O)c1cc(Oc2ccc(NC(=O)Nc3cc(C(C)(C)C)nn3-c3ccc4ncccc4c3)c(F)c2)ccn1 [REBASTINIB] show? 8.1

---

# Measurement Notes: Half-life in male CD-1 mouse at 10 mg/kg, IM measured by LC-MS/MS analysis
# Assay type: ADME, organism-based
# Settings: in vivo
Quantity Name: half-life (h)
Answers are plain numbers, in h.

Given the entry CNC(=O)c1cc(Oc2ccc(NC(=O)Nc3cc(C(C)(C)C)nn3-c3ccc4ncccc4c3)c(F)c2)ccn1 , report its measured half-life. 5.59
